experimentNotes: Protein binding in human plasma
Assay type: ADME, cell-free
conditions: read-out: PPB (converted)
readoutName: fraction unbound

a = Cc1ccc2c(=O)n(-c3ccc4c(cnn4C)c3)c(CCN3C(=O)c4ccccc4C3=O)nc2c1
b = COc1ccc(-n2c(CCN3C(=O)c4cccc(OC(C)C)c4C3=O)nc3ncccc3c2=O)cc1
c = COc1ccc(-n2c(CCN3C(=O)c4cccc(-c5ccncc5)c4C3=O)nc3ccccc3c2=O)cc1
d = COc1ccc(-n2c(CCN3C(=O)c4cccc(OC(C)C)c4C3=O)nc3ccccc3c2=O)cc1
INPUT: sort_by: fraction unbound; order: ascending; scope: items listed above # format: label list in the order the request specifies
OUTPUT: a, d, c, b

----------
Target or system cAMP and cAMP-inhibited cGMP 3',5'-cyclic phosphodiesterase 10A (Homo sapiens); recorded quantity Ki.
readoutName: Ki (nM)

Completed entries (count: 4):
COc1ccc(-n2c(CCN3C(=O)c4cccc(OC(C)C)c4C3=O)nc3ncccc3c2=O)cc1 0.37
COc1ccc(-n2c(CCN(C(C)=O)C(C)=O)nc3cccc(Cl)c3c2=O)cc1 171
COc1ccc(-n2c(CCN3C(=O)c4ccc(Cl)cc4C3=O)nc3ccccc3c2=O)cc1 30
CC(=O)N(CCc1nc2ccccc2c(=O)n1-c1ccc(F)cc1)C(C)=O 280

P = CC(=O)N(CCc1nc2ccccc2c(=O)n1-c1ccc(C)cc1)C(C)=O
Q = COc1ccc(-n2c(CCN(C(C)=O)C(C)=O)nc3ccc(Cl)cc3c2=O)cc1
R = CC(=O)N(CCc1nc2ccccc2c(=O)n1-c1ccc(C#N)cc1)C(C)=O
S = COc1ccc(-n2c(CCN(C(C)=O)C(C)=O)nc3cc(Cl)ccc3c2=O)cc1
INPUT: Rank descending by Ki. # format: label list in the order the request specifies
OUTPUT: R, Q, P, S

----------
testedOn: cAMP and cAMP-inhibited cGMP 3',5'-cyclic phosphodiesterase 10A (Homo sapiens, UniProt Q9Y233)
Sequence (Q9Y233 whole entry): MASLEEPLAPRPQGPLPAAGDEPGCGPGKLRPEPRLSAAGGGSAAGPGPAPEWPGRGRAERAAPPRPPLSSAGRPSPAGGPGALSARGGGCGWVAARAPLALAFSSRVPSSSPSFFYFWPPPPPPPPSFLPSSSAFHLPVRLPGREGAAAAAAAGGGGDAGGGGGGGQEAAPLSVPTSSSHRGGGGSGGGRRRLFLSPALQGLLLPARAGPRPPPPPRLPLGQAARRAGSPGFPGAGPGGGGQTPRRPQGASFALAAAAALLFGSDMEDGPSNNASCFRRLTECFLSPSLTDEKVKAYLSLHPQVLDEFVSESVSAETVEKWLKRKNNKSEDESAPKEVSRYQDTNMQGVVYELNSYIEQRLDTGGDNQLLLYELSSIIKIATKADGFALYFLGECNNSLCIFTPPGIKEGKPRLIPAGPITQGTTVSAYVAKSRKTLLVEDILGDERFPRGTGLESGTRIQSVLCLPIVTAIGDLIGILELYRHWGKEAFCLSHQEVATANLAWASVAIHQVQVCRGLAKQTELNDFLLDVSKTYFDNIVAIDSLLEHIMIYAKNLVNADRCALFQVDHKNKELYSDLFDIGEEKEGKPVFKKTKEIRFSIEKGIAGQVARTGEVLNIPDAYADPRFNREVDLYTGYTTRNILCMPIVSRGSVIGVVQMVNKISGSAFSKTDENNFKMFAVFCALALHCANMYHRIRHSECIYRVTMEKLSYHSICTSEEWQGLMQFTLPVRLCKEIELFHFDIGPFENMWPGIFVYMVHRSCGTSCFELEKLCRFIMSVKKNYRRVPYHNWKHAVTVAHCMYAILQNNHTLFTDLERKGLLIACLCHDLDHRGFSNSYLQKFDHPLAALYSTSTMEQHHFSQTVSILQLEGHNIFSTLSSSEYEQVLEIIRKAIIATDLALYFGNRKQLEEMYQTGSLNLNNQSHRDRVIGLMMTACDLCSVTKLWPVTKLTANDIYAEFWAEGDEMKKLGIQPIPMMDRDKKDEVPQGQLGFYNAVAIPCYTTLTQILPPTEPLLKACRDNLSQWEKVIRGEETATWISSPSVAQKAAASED
pKi: −log10 of the molar value.
readoutName: pKi

COc1ccc(-n2c(CCN(C(C)=O)C(C)=O)nc3cc(C)ccc3c2=O)cc1 7.82
CC(=O)N(CCc1nc2ccccc2c(=O)n1-c1ccc(Cl)cc1)C(C)=O 6.91
COc1ccc(-n2c(CCN3C(=O)c4cccc(Br)c4C3=O)nc3ccccc3c2=O)cc1 8.08
CC(=O)N(CCc1nc2ccccc2c(=O)n1-c1cccc(C)c1)C(C)=O 6.96
COc1ccc(-n2c(CCN3C(=O)c4c(Cl)ccc(Cl)c4C3=O)nc3ccccc3c2=O)cc1 8.20

P = CC(=O)N(CCc1nc2ccccc2c(=O)n1-c1ccc(-c2ccccc2)cc1)C(C)=O
Q = COc1ccc(-n2c(CCN3C(=O)c4cccc(-c5nccs5)c4C3=O)nc3ccccc3c2=O)cc1
INPUT: Endpoint returns whichever of P and Q has the numerically higher pKi. Write the label of whichever entry you select.
OUTPUT: Q

From: ChEMBL document CHEMBL3627720
